Origin of values: paper PMC10328973

targetOrTestSystem: T1, UKNP4.1.1 E2E1-I53-50A trimer (Hepatitis C virus genotype 4a, strain …, UniProt A0A0U3JDN1, stabilised)
T1 construct: also called UKNP4.1.1 E2E1 trimer; source: HEK293F, co-transfected with furin, purified (Strep-TactinXT, SEC); copies: 3 + 3
protocolDetails: ELISA
runConditions: both partners purified

# binder, binding result
rows = [
    ("AT1209 (antibody, V domains shown, also called mature AT1209; source: HEK293F, transfected, purified (protein A/G)) VH: QVLVQSGAEVKKPGSSVRVSCKASGDTFKTHAISWVRQAPGQGLEWVGGTVRQAPGDGLELLGGFVPILAPANDAQKFQGRVTITADGSTGPVYMDLSTLTSEDTAMYYCVTSLSEPIPRSCRGGRCYSGPFDAFGVWGQ VL: EIMLTQSPVTLSVSPGERATLSCRASQSIGTNLAWYQKPGQAPRLLIHGASTRATGVPVSFSGSGSGTEFTLTISSLQSEDFAVYYCQQYNNWPLTFGGGTKVEIK", "binds"),
]
